MEASUREMENT LABEL: melting point

melting point in this record for `Cc1ccc(N)cc1-n1cnnn1` : 113 to 115 °C

melting point in this record for `Cc1cc(SCC(=O)O)nc2ccccc12` : 117 to 119 °C

melting point in this record for Cc1cccc(C(=O)NC(CCS(C)(=O)=O)C(=O)O)c1 (stereo not drawn) : 235 to 239 °C

melting point in this record for `Cc1ccc(CNCc2ccc(C)n2C)n1C` : 61 to 63 °C

melting point in this record for `CCCN1C(=O)CC(=O)NC1=S` : 127 to 129 °C

melting point in this record for `Cc1cc([N+](=O)[O-])n[nH]1` : 153 to 155 °C

melting point in this record for `O=C(O)c1cc([N+](=O)[O-])c(F)cc1Cl` : 151 to 153 °C

melting point in this record for CC(Oc1cccc(F)c1)C(=O)O (stereo not drawn) : 95 to 97 °C

melting point in this record for `CC(C)(C)OC(=O)Nc1cccc(C(N)=NO)c1` : 168 to 170 °C

melting point in this record for `CC(C)NS(=O)(=O)c1cccc(C(=O)O)c1` : 162 to 164 °C

melting point in this record for `CN1CCN(C2=c3ccccc3=Nc3ccc(Cl)cc3N2)CC1` : 184 to 186 °C

melting point in this record for CS(=O)(=O)N1CCCC(C(=O)O)C1 (stereo not drawn) : 107 to 109 °C

melting point in this record for `CC(Cc1cccc(F)c1)(C(=O)O)C(=O)O` : 150 to 152 °C

melting point in this record for `O=C(O)c1ccc(O)c2ccccc12` : 184 to 186 °C

melting point in this record for `O=C1C=CC(=O)N1C1CC1` : 54 to 56 °C

melting point in this record for `Cc1nn(Cc2ccc(F)cc2)c2[nH]nc(N)c12` : 140 to 142 °C

melting point in this record for `N#Cc1cn(-c2ccc([N+](=O)[O-])cc2)nc1N` : 278 to 280 °C

melting point in this record for `Nc1nc(N2CCOCC2)ns1` : 187 to 189 °C

melting point in this record for `CCOC(=O)c1ccc(-n2c(C)cc(C=O)c2C)cc1` : 113 to 115 °C

melting point in this record for `O=C1Nc2c(Br)ccc(Br)c2C1=O` : 271 to 273 °C

melting point in this record for CC(NC(N)=O)C12CC3CC(CC(C3)C1)C2 (stereo not drawn) : 159 to 161 °C

melting point in this record for COCCOc1ccc(C(F)(F)F)cc1NC(=O)C(C)Cl (stereo not drawn) : 59 to 61 °C

melting point in this record for `Cc1sc(=O)[nH]c1C(C)C` : 129 to 131 °C

melting point in this record for `CCC(=CC(=O)O)c1ccc(OC)cc1` : 130 to 132 °C

melting point in this record for `O=C(O)CCn1cccc1` : 62 to 64 °C

melting point in this record for CC(Cl)C(=O)NC(C)c1ccc2c(c1)OCCO2 (stereo not drawn) : 110 to 112 °C

melting point in this record for `O=C(O)C=CC(=O)NCc1cccnc1` : 92 to 94 °C

melting point in this record for `O=C(O)c1cc(C2CC2)[nH]n1` : 193 to 195 °C

Data credit: a melting point compilation (Tetko et al.)
